Assign self-aminoacylation to each entry below.
- System: biotinyl-Val-oxazolone
- Experiment: self-aminoacylation, catalytic enhancement (BVO) (fold over background); higher = more active; k-Seq, kA / k0A0; sequences stand for … in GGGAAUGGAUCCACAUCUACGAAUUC…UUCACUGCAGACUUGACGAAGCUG
This sample holds only a part of the variants without activity.

Monomer sequence	self-aminoacylation
CUACCUCAAACACUCGGUCUG [Fam1A.1 aminoacylation ribozyme variant]	1.6

I'm hoping you can list self-aminoacylation for every sequence here, please.
1. CCAAACUUCAAGCGAUCGGUC [Fam1B.1 aminoacylation ribozyme variant]
2. AUUACCAUUGUCAUCGAGUGA [Fam2.1 aminoacylation ribozyme variant]

A)
1: 1.35; 2: 4.25

Fill in self-aminoacylation for each of the 3 sequences listed.
1. AUUCACCUAGUUCAUCGCGUG [Fam2.2 aminoacylation ribozyme variant]
2. AAGUUUGUUAAUUGUCGCAAG [Fam3.1 aminoacylation ribozyme variant]
3. CUCGUUCAAACAAUCGGUCUG [Fam1A.1 aminoacylation ribozyme variant]

A)
1. 2.99
2. 0.926
3. 1.07

Consider the following items and state reported self-aminoacylation for each.
1. AUUGCCCUAGGUCAUCGGGUG [Fam2.2 aminoacylation ribozyme variant]
2. AUUACCCUGGUAAUCGAGAGA [Fam2.1 aminoacylation ribozyme variant]
3. AAGCUUGCAAAUAGUCGCAAG [Fam3.1 aminoacylation ribozyme variant]
4. CUACUACAAACAAUCGGGCUG [Fam1A.1 aminoacylation ribozyme variant]
5. CAACUUCAAACAAUGGGUCUG [Fam1A.1 aminoacylation ribozyme variant]

A)
[5.7, 0.78, 2.25, 1.05, 0.929]

###

Could you please report measured self-aminoacylation for the items listed next?
- System: biotinyl-Ile-oxazolone
- Experiment: self-aminoacylation, catalytic enhancement (BIO) (fold over background); higher = more active; k-Seq, kA / k0A0; sequences stand for … in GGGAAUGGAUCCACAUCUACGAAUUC…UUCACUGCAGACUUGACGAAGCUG
This sample holds only a part of the variants without activity.
One number for each entry.

These solved cases illustrate the format of a correct answer.
Monomer sequence	Property	Assay result
AUACACCUAGGUAAUCGGGUG [Fam2.2 aminoacylation ribozyme variant]	self-aminoacylation	1.93
CUCACCCUGGUCAUCGAGUGA [Fam2.1 aminoacylation ribozyme variant]	self-aminoacylation	3.71
GCACACUUCAAGCACUCGGUC [Fam1B.1 aminoacylation ribozyme variant]	self-aminoacylation	2.02
AUGUCCCUGGUCAUCGAGUGA [Fam2.1 aminoacylation ribozyme variant]	self-aminoacylation	15.1
UGUCACCUAGGUCAUCGGGUG [Fam2.2 aminoacylation ribozyme variant]	self-aminoacylation	3.84
AUUCGCCUAGGUCAUCCGGUG [Fam2.2 aminoacylation ribozyme variant]	self-aminoacylation	6.5
AUUACCGUGGACAUCGAGUGA [Fam2.1 aminoacylation ribozyme variant]	self-aminoacylation	2.29
CUACUUCAACCAAUCGGACUG [Fam1A.1 aminoacylation ribozyme variant]	self-aminoacylation	0.79

Q) Request the reported self-aminoacylation associated with AUUACCCUGGUCAUCGAGAUA [Fam2.1 aminoacylation ribozyme variant]
A) 1.78

###

- Tested on: biotinyl-Val-oxazolone
- Experiment: self-aminoacylation, catalytic enhancement (BVO) (fold over background); higher = more active; k-Seq, kA / k0A0; sequences stand for … in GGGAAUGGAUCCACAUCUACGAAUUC…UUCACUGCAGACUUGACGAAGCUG
Variants at the floor of the assay were thinned out.
Property: self-aminoacylation
Give bare numbers.

Worked examples follow.
Monomer sequence	Assay system	Assay result
AAGUUUGCAAAUAGUAGCAAG [Fam3.1 aminoacylation ribozyme variant]	biotinyl-Val-oxazolone	0.939
CUACAUCAAACAAUCGGGCUG [Fam1A.1 aminoacylation ribozyme variant]	biotinyl-Val-oxazolone	1.3
CUUACCCUGGUCAUCGAGUUA [Fam2.1 aminoacylation ribozyme variant]	biotinyl-Val-oxazolone	1.73

// each sequence listed below needs its self-aminoacylation
1. CCACACUUCAAGCAAACGGUG [Fam1B.1 aminoacylation ribozyme variant]
2. AAGUUUGCUAAGAGUAGCAAG [Fam3.1 aminoacylation ribozyme variant]
3. AUUCACCUACGUCAUCGGGGG [Fam2.2 aminoacylation ribozyme variant]
4. AUUCACCUAGGUCAUCGGGAU [Fam2.2 aminoacylation ribozyme variant]
5. AAUACCCUGGCCAUCGAGUGA [Fam2.1 aminoacylation ribozyme variant]

A)
3.33
0.727
2.01
3.4
1.64

Q) So what does the record say about self-aminoacylation for CCUCACAUCAAGCAAUCGGUC [Fam1B.1 aminoacylation ribozyme variant] ?
A) 0.973

###

- Test system: biotinyl-Phe-oxazolone
- Experiment: self-aminoacylation, catalytic enhancement (BFO) (fold over background); higher = more active; k-Seq, kA / k0A0; sequences stand for … in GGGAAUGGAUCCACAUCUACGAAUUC…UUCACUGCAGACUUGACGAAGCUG
Fewer inactive variants are shown than the library holds.
Property: self-aminoacylation
One number for each entry.

Sample answers from the record:
Monomer sequence	self-aminoacylation
AUUCAGCUAGGUCAUCGAGUG [Fam2.2 aminoacylation ribozyme variant]	8.78
ACGUUUGCUAAUAGUCGCAAC [Fam3.1 aminoacylation ribozyme variant]	1.42
AAGUUUGCUAACAGUCGAAAG [Fam3.1 aminoacylation ribozyme variant]	5.73
CUACUUCAAACAAUAGGUCUG [Fam1A.1 aminoacylation ribozyme variant]	1.11
AUUACCCUGGUUAUCGAGUAA [Fam2.1 aminoacylation ribozyme variant]	1.44
AUACUUCAUACAAUCGGUCUG [Fam1A.1 aminoacylation ribozyme variant]	1.1
AUUACUCGGGUCAUCGAGUGA [Fam2.1 aminoacylation ribozyme variant]	28.6
AUUCACCUAGGCCAACGGGUG [Fam2.2 aminoacylation ribozyme variant]	14.5

Look up self-aminoacylation for the entries below, preserving their order.
1. AUUGCCCUGGUCCUCGAGUGA [Fam2.1 aminoacylation ribozyme variant]
2. AUGCAUCUAGGUCAUCGGGUG [Fam2.2 aminoacylation ribozyme variant]
3. CUACUUCAAACCGUCGGUCUG [Fam1A.1 aminoacylation ribozyme variant]
4. CCACACUUCAUCCAAUCGGUC [Fam1B.1 aminoacylation ribozyme variant]
5. AAGUUCACUAAUAGUCGCAAG [Fam3.1 aminoacylation ribozyme variant]
6. AUUCACCUAGGUAAUCGGCUG [Fam2.2 aminoacylation ribozyme variant]

A)
23.4
57
0.289
0.689
2.72
0.486

Hey, quick one: what's self-aminoacylation for each of these?
1. AAUACCCUGGUCAUCCAGUGA [Fam2.1 aminoacylation ribozyme variant]
2. CGACACAUCAAGCAAUCGGUC [Fam1B.1 aminoacylation ribozyme variant]

A)
1. 10.6
2. 1.47

Hi team, please reply with self-aminoacylation for each item in this list.
1. CUACUUCAAACUACCGGUCUG [Fam1A.1 aminoacylation ribozyme variant]
2. AUUACCCGGGGCAUCGAGUGA [Fam2.1 aminoacylation ribozyme variant]

A)
[0.75, 62.9]

###

- Test system: biotinyl-Ile-oxazolone
- Experiment: self-aminoacylation, catalytic enhancement (BIO) (fold over background); higher = more active; k-Seq, kA / k0A0; sequences stand for … in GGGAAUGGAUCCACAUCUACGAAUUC…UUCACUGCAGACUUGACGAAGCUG
This sample holds only a part of the variants without activity.
Property: self-aminoacylation
One number for each entry.

Monomer sequence	Assay result
AUUCAACUUGGUCAUCGGGUG [Fam2.2 aminoacylation ribozyme variant]	3.85
CUACUUCGAACCAUCGGUCUG [Fam1A.1 aminoacylation ribozyme variant]	0.723
AUGCACCAAGGUCAUCGGGUG [Fam2.2 aminoacylation ribozyme variant]	4.95
AAUAACCUAGGUCAUCGGGUG [Fam2.2 aminoacylation ribozyme variant]	3.18
CUACUCCAAACAAUCGGGCUG [Fam1A.1 aminoacylation ribozyme variant]	1.36
CUACUUCAAAGAAUCGGUCUU [Fam1A.1 aminoacylation ribozyme variant]	1.29

I'm hoping you can list self-aminoacylation for every sequence here, please.
1. CCACUUCAAACUAUCGGUCUG [Fam1A.1 aminoacylation ribozyme variant]
2. GUUCACCUAGCUCAUCGGGUG [Fam2.2 aminoacylation ribozyme variant]
3. CCACCCUUCAAGCAAUCAGUC [Fam1B.1 aminoacylation ribozyme variant]

A)
1: 1.44; 2: 1.55; 3: 0.736

###

- Test system: biotinyl-Phe-oxazolone
- Experiment: self-aminoacylation, catalytic enhancement (BFO) (fold over background); higher = more active; k-Seq, kA / k0A0; sequences stand for … in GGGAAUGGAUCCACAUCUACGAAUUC…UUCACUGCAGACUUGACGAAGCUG
Fewer inactive variants are shown than the library holds.
Kindly state self-aminoacylation for each of the entries shown.

Recorded results for 4 sequences are shown here.
Monomer sequence	Assay system	self-aminoacylation
AUUCACCCAGGUCAUUGGGUG [Fam2.2 aminoacylation ribozyme variant]	biotinyl-Phe-oxazolone	23.8
AUUACCCUGGUAAUCGAGUGU [Fam2.1 aminoacylation ribozyme variant]	biotinyl-Phe-oxazolone	19.2
CCAAACUUCAAGCAAACGGUC [Fam1B.1 aminoacylation ribozyme variant]	biotinyl-Phe-oxazolone	0.911
AUUACCCUGGCCAUCGAGUAA [Fam2.1 aminoacylation ribozyme variant]	biotinyl-Phe-oxazolone	3.72

Q) Data request, read-out self-aminoacylation, for AAGUUUCCAAAUAGUCGCAAG [Fam3.1 aminoacylation ribozyme variant]
A) 2.83
